# tested_on: hCRTH2 (Homo sapiens)
# Construct: expressed in transfected cells; host or cells: HEK (human embryonic kidney) cells expressing hCRTH2; membrane preparation
# assay_procedure: Radioligand binding assay ([3H]PGD2 competition, HEK-hCRTH2 membranes)
# condition_details: [3H]PGD2 binding, values in text
pKi: −log10 of the molar value.
Threshold rule: pKi greater than or equal to 8 is Yes; below that, No.

INSERT INTO results (compound, group_label) VALUES
  ('C[C@@H](NC(=O)c1ccc2nc(-c3ccc(Cl)cc3)c(CCCCC(=O)O)nc2c1)c1ccc(F)cc1 [16S]', 'Yes');

Proceed to the following item.
IN: Hi, just wondering whether O=C(O)CCCCc1nc2cc(C(=O)N3CCC(c4ccccc4)CC3)ccc2nc1-c1ccccc1 [15Ai] shows pKi of 8 or higher.
OUT: Yes

###

Measured pKi, listed per entry for reference.
# tested_on: hCRTH2 (Homo sapiens)
# Construct: expressed in transfected cells; host or cells: HEK (human embryonic kidney) cells expressing hCRTH2; membrane preparation
# Sequence (Q9Y5Y4 1-395): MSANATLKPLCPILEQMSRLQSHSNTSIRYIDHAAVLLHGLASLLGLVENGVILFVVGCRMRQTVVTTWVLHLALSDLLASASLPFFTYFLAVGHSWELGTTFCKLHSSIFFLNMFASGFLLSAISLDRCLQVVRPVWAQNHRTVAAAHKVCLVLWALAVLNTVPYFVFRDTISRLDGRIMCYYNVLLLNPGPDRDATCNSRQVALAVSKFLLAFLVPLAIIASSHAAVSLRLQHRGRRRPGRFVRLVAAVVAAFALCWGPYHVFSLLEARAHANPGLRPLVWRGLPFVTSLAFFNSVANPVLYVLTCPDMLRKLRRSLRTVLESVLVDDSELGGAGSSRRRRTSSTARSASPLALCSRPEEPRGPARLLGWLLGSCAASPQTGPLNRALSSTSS
# assay_procedure: Radioligand binding assay ([3H]PGD2 competition, HEK-hCRTH2 membranes)
# condition_details: [3H]PGD2 competition, Table B
pKi: −log10 of the molar value.

INSERT INTO assay_data (compound, measured_value) VALUES
  ('C[C@@H](CCc1nc2cc(C(=O)N3CC(c4cccc(F)c4)C3)ccc2nc1-c1ccccc1)CC(=O)O [compound 290]', '7.70 to 8.68');

IN: Requested read-out: pKi. Entry: N#Cc1ccc2c(c1)OCC[C@@H]2NC(=O)c1ccc2nc(-c3ccc(Cl)cc3)c(CCCCC(=O)O)nc2c1 [compound 333]
OUT: 7.70 to 8.68

###

# tested_on: hCRTH2 (Homo sapiens, UniProt Q9Y5Y4)
# Construct: expressed in transfected cells; host or cells: HEK (human embryonic kidney) cells expressing hCRTH2; membrane preparation
# Sequence (Q9Y5Y4 1-395): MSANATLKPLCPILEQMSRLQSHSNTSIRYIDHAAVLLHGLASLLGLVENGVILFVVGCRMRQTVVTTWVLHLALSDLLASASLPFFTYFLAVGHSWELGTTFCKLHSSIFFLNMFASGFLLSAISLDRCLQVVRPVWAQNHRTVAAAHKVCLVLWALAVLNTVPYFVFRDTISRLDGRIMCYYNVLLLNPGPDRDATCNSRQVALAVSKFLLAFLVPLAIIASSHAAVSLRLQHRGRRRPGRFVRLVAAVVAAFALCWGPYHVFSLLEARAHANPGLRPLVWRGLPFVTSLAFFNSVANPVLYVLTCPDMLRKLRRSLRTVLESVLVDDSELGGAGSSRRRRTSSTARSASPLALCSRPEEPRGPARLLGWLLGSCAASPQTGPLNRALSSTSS
# assay_procedure: Radioligand binding assay ([3H]PGD2 competition, HEK-hCRTH2 membranes)
# condition_details: [3H]PGD2 binding, rated A-E (Table A)
pKi: −log10 of the molar value.
Measured pKi, listed per entry for reference.

Recorded pKi, per entry:
INSERT INTO assay_data (molecule, measured_value) VALUES
  ('C[C@H](c1ccc(F)cc1)N(C)C(=O)c1ccc2nc(-c3ccc(F)cc3)c(CCCCC(=O)O)nc2c1', '7.70 to 8.68'),
  ('C[C@H](NC(=O)c1ccc2nc(-c3ccc(C(F)(F)F)cc3)c(CCCCC(=O)O)nc2c1)c1ccccn1', '6.70 to 7.70'),
  ('CC(CCc1nc2cc(C(=O)N3CC[C@H](c4ccccc4)C3)ccc2nc1-c1ccc(C(F)(F)F)cc1)CC(=O)O (stereo partly shown) [17U]', '7.70 to 8.68');

IN: pKi of CC(CCCc1nc2cc(C(=O)N[C@H](C)c3ccc(F)cc3)ccc2nc1-c1ccc(Cl)cc1)C(=O)O (stereo partly shown) on hCRTH2 (Homo sapiens, UniProt Q9Y5Y4)?
OUT: 7.70 to 8.68
